Let's look at some compounds and their measured pIC50.
Molecular target: protein-protein interaction between Kras and SOS1 (biotin-tagged human Kras loaded with GDP, His-tagged human SOS1) (Homo sapiens (Human), UniProt P01116, G12D)
Experiment: Protein-protein interaction inhibition between Kras and SOS1 (KrasG12D-SOS PPI) using AlphaScreen
Assay type: biochemical
Conditions: AlphaScreen; biotin-tagged human Kras loaded with GDP, His-tagged human SOS1; read-out: KRAS G12D-SOS PPI IC50
pIC50: −log10 of the molar value. Numbered stars: 1 amine (or outer) side, 2 acyl side, 3 side chain; on linkers, the order of the positions; unused ones are H or OH. Bridge positions count the residues as written; N and C are the ends. Square brackets hold non-standard residues; d marks the D form. Peptide text beside a SMILES is read from it. * marks the point of attachment. hPhe(3-Cl-4-CF3) = N[C@@H](CCc1ccc(C(F)(F)F)c(Cl)c1)C(=O)O; X23 = N#Cc1cc(CC[C@H](N[*:1])C(=O)[*:2])ccc1C(F)(F)F; NMedβ3hAla = C[C@H](CC(=O)[*:2])N(C)[*:1]; NMeGly(cPent) = CN[C@H](C(=O)O)C1CCCC1; NMeGly(cBu) = CN[C@H](C(=O)O)C1CCC1; NMeCha = CN[C@@H](CC1CCCCC1)C(=O)O; NMeD = CN[C@@H](CC(=O)O)C(=O)O; NMeL = CN[C@@H](CC(C)C)C(=O)O; NMeA = CN[C@@H](C)C(=O)O; NMeAib = CNC(C)(C)C(=O)O; Piperidide = C1CCN(*)CC1; Ac5c = NC1(C(=O)O)CCCC1; Aze = O=C(O)[C@@H]1CCN1; Sar = CNCC(=O)O
observed.property: pIC50

[
  {
    "compound": "CC[C@H](C)[C@@H]1NC(=O)[C@H](CC(C)C)N(C)C(=O)C[C@@H](C(=O)N2CCCCC2)N(C)C(=O)[C@H](C2CCCC2)N(C)C(=O)C2(CCCC2)NC(=O)[C@@H]2CCCN2C(=O)[C@H](CCc2ccc(C(F)(F)F)c(C#N)c2)NC(=O)CN(C)C(=O)[C@H](CC2CCCCC2)N(C)C(=O)[C@@H]2CCN2C(=O)[C@H](C)N(C)C1=O [Compound 2072] ([NMeL]I[NMeA][Aze][NMeCha][Sar][X23]P[Ac5c][NMeGly(cPent)][NMeD]-Piperidide; lactam N-11 (inferred); C-terminus assumed)",
    "observed.result": 9.38
  },
  {
    "compound": "CC[C@H](C)[C@@H]1NC(=O)[C@H](C)N(C)C(=O)C[C@@H](C)N(C)C(=O)[C@H](C2CCC2)N(C)C(=O)C(C)(C)N(C)C(=O)[C@@H]2CCCN2C(=O)[C@H](CCc2ccc(C(F)(F)F)c(Cl)c2)NC(=O)CN(C)C(=O)[C@H](CC2CCCCC2)N(C)C(=O)[C@@H]2CCN2C(=O)[C@H](C)N(C)C1=O [Compound 2157] (cyclo([Aze][NMeCha][Sar][hPhe(3-Cl-4-CF3)]P[NMeAib][NMeGly(cBu)][NMedβ3hAla][NMeA]I[NMeA]))",
    "observed.result": 8.16
  }
]

---

Biological target: protein-protein interaction between Kras and SOS1 (biotin-tagged human Kras loaded with GDP, His-tagged human SOS1) (Homo sapiens (Human), UniProt P01116, G12D)
Experiment: Protein-protein interaction inhibition between Kras and SOS1 (KrasG12D-SOS PPI) using AlphaScreen;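 also: kras produced in E. coli, Ni-coupled donor beads and streptavidin acceptor beads, excitation 680 nm with emission detected at 520–620 nm via singlet oxygen transfer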
Assay type: biochemical
Conditions: AlphaScreen; biotin-tagged human Kras loaded with GDP, His-tagged human SOS1; read-out: KRAS G12D-SOS PPI IC50
Numbered stars: 1 amine (or outer) side, 2 acyl side, 3 side chain; on linkers, the order of the positions; unused ones are H or OH. Bridge positions count the residues as written; N and C are the ends. Square brackets hold non-standard residues; d marks the D form. Peptide text beside a SMILES is read from it. * marks the point of attachment. hPhe(3,5-F2-4-CF3) = N[C@@H](CCc1cc(F)c(C(F)(F)F)c(F)c1)C(=O)O; hPhe(3-Cl-4-CF3) = N[C@@H](CCc1ccc(C(F)(F)F)c(Cl)c1)C(=O)O; hPhe(3-F,4-CF3) = N[C@@H](CCc1ccc(C(F)(F)F)c(F)c1)C(=O)O; hPhe(4-CF3) = N[C@@H](CCc1ccc(C(F)(F)F)cc1)C(=O)O; NMePhe(4-Cl) = CN[C@@H](Cc1ccc(Cl)cc1)C(=O)O; NMePhe(4-Me) = CN[C@@H](Cc1ccc(C)cc1)C(=O)O; X3 = O=C(CN(C1CC2(C1)CC(F)(F)C2)[*:1])[*:2]; NMedβ3hAla = C[C@H](CC(=O)[*:2])N(C)[*:1]; NMeGly(cPent) = CN[C@H](C(=O)O)C1CCCC1; NMeCha = CN[C@@H](CC1CCCCC1)C(=O)O; Hyp = O=C(O)[C@@H]1C[C@@H](O)CN1; NMeChg = CN[C@H](C(=O)O)C1CCCCC1; NMeF = CN[C@@H](Cc1ccccc1)C(=O)O; NMeI = CC[C@H](C)[C@H](NC)C(=O)O; NMeD = CN[C@@H](CC(=O)O)C(=O)O; NMeL = CN[C@@H](CC(C)C)C(=O)O; Tle = CC(C)(C)[C@H](N)C(=O)O; NMeV = CN[C@H](C(=O)O)C(C)C; d(β3hA) = C[C@@H](N)CC(=O)O; Morpholide = C1CN(*)CCO1; NMeA = CN[C@@H](C)C(=O)O; NMeAib = CNC(C)(C)C(=O)O; Piperidide = C1CCN(*)CC1; Ac5c = NC1(C(=O)O)CCCC1; Aze = O=C(O)[C@@H]1CCN1; NBuGly = CCCCNCC(=O)O; NEtG = CCNCC(=O)O; Sar = CNCC(=O)O
Field: label. Allowed values: Fulfilled (IC50 < 20 nM) or Not fulfilled (IC50 >= 20 nM).

[
  {
    "compound": "CC[C@H](C)[C@@H]1NC(=O)[C@H](C(C)C)N(C)C(=O)C[C@@H](C)NC(=O)[C@H](CC(C)C)N(C)C(=O)C2(CCCC2)NC(=O)[C@H](CC(C)C)N(C)C(=O)[C@H](CCc2ccc(C(F)(F)F)c(Cl)c2)NC(=O)CN(C)C(=O)[C@H](Cc2ccc(Cl)cc2)N(C)C(=O)CN(C)C(=O)CN(C)C1=O [Compound 1014] (cyclo([Ac5c][NMeL][d(β3hA)][NMeV]I[Sar][Sar][NMePhe(4-Cl)][Sar][hPhe(3-Cl-4-CF3)][NMeL]))",
    "assigned.label": "Fulfilled"
  },
  {
    "compound": "CCCCN1CC(=O)NC2(CCCC2)C(=O)N(C)[C@@H](C2CCCCC2)C(=O)N(C)[C@H](C(=O)N2CCCCC2)CC(=O)N(C)[C@@H](CC(C)C)C(=O)N[C@@H]([C@@H](C)CC)C(=O)N(C)CC(=O)N(C)CC(=O)N(C)[C@@H](CC2CCCCC2)C(=O)N(C)CC(=O)N[C@@H](CCc2ccc(C(F)(F)F)c(Cl)c2)C1=O [Compound 848] ([NMeL]I[Sar][Sar][NMeCha][Sar][hPhe(3-Cl-4-CF3)][NBuGly][Ac5c][NMeChg][NMeD]-Piperidide; lactam N-11)",
    "assigned.label": "Fulfilled"
  },
  {
    "compound": "CC[C@H](C)[C@@H]1NC(=O)[C@H](CC(C)C)N(C)C(=O)C[C@@H](C(=O)N2CCOCC2)N(C)C(=O)[C@H](C2CCCC2)N(C)C(=O)C2(CCCC2)NC(=O)[C@@H]2CCCN2C(=O)[C@H](CCc2ccc(C(F)(F)F)c(Cl)c2)NC(=O)CN(CC)C(=O)[C@H](C2CCCC2)N(C)C(=O)[C@@H]2CCN2C(=O)[C@H](C)N(C)C1=O [Compound 1142] ([NMeL]I[NMeA][Aze][NMeGly(cPent)][NEtG][hPhe(3-Cl-4-CF3)]P[Ac5c][NMeGly(cPent)][NMeD]-Morpholide; lactam N-11)",
    "assigned.label": "Fulfilled"
  },
  {
    "compound": "CC[C@H](C)[C@@H]1NC(=O)[C@H](C)N(C)C(=O)C[C@@H](C)NC(=O)[C@H](C(C)C)N(C)C(=O)C2(CCCC2)NC(=O)[C@@H]2CCCN2C(=O)[C@H](CCc2ccc(C(F)(F)F)c(Cl)c2)NC(=O)[C@H]2CCCN2C(=O)[C@H](CC2CCCCC2)N(C)C(=O)CN(C)C(=O)CN(C)C1=O [Compound 412] (cyclo([Ac5c][NMeV][d(β3hA)][NMeA]I[Sar][Sar][NMeCha][dP][hPhe(3-Cl-4-CF3)]P))",
    "assigned.label": "Not fulfilled"
  },
  {
    "compound": "CC[C@H](C)[C@@H]1NC(=O)[C@H](CC(C)C)N(C)C(=O)C[C@@H](C(=O)N(C)C)N(C)C(=O)[C@H]([C@@H](C)CC)N(C)C(=O)C2(CCCC2)NC(=O)[C@@H]2CCCN2C(=O)[C@H](CCc2ccc(C(F)(F)F)c(F)c2)NC(=O)CN(C)C(=O)[C@H](Cc2ccc(C)cc2)N(C)C(=O)[C@@H]2CCN2C(=O)[C@H](C)N(C)C1=O [Compound 1017] ([NMeL]I[NMeA][Aze][NMePhe(4-Me)][Sar][hPhe(3-F,4-CF3)]P[Ac5c][NMeI][NMeD]-NMe2; lactam N-11)",
    "assigned.label": "Fulfilled"
  },
  {
    "compound": "CC[C@H](C)[C@@H]1NC(=O)[C@H](C)N(C)C(=O)C[C@@H](C)NC(=O)[C@H](CC(C)C)N(C)C(=O)[C@H](Cc2ccccc2)N(C)C(=O)[C@H](C(C)(C)C)NC(=O)[C@H](CCc2ccc(C(F)(F)F)cc2)NC(=O)CN(C)C(=O)[C@H](Cc2ccc(Cl)cc2)N(C)C(=O)CN(C)C(=O)CN(C)C1=O [Compound 764] (cyclo(I[Sar][Sar][NMePhe(4-Cl)][Sar][hPhe(4-CF3)][Tle][NMeF][NMeL][d(β3hA)][NMeA]))",
    "assigned.label": "Not fulfilled"
  },
  {
    "compound": "CC[C@H](C)[C@@H]1NC(=O)[C@H](CC(C)C)N(C)C(=O)C[C@@H](C(=O)N2CCCCC2)N(C)C(=O)[C@H](C2CCCCC2)N(C)C(=O)C2(CCCC2)NC(=O)CN(C2CC3(C2)CC(F)(F)C3)C(=O)[C@H](CCc2ccc(C(F)(F)F)c(Cl)c2)NC(=O)CN(C)C(=O)[C@H](CC2CCCCC2)N(C)C(=O)CN(C)C(=O)CN(C)C1=O [Compound 2035] ([NMeL]I[Sar][Sar][NMeCha][Sar][hPhe(3-Cl-4-CF3)][X3][Ac5c][NMeChg][NMeD]-Piperidide; lactam N-11)",
    "assigned.label": "Not fulfilled"
  },
  {
    "compound": "CCO[C@@H]1C[C@H]2C(=O)NC3(CCCC3)C(=O)N(C)[C@@H](C3CCCC3)C(=O)N(C)[C@H](C)CC(=O)N(C)[C@@H](CC(C)C)C(=O)N[C@@H]([C@@H](C)CC)C(=O)N(C)CC(=O)N(C)CC(=O)N(C)[C@@H](CC3CCCCC3)C(=O)N(C)CC(=O)N[C@@H](CCc3cc(F)c(C(F)(F)F)c(F)c3)C(=O)N2C1 [Compound 74] (cyclo([Ac5c][NMeGly(cPent)][NMedβ3hAla][NMeL]I[Sar][Sar][NMeCha][Sar][hPhe(3,5-F2-4-CF3)][Hyp](Et)))",
    "assigned.label": "Fulfilled"
  },
  {
    "compound": "CC[C@H](C)[C@@H]1NC(=O)[C@H](CC(C)C)N(C)C(=O)C[C@@H](C)N(C)C(=O)[C@H](CC(C)C)NC(=O)C(C)(C)N(C)C(=O)[C@H](C(C)C)NC(=O)[C@H](CCc2ccc(C(F)(F)F)c(F)c2)NC(=O)CN(C)C(=O)[C@H](Cc2ccc(Cl)cc2)N(C)C(=O)CN(C)C(=O)CN(C)C1=O [Compound 1054] (cyclo(I[Sar][Sar][NMePhe(4-Cl)][Sar][hPhe(3-F,4-CF3)]V[NMeAib]L[NMedβ3hAla][NMeL]))",
    "assigned.label": "Not fulfilled"
  }
]
